Test system: K-562 leukemia
Assay: NCI-60 one-dose screen, 48 h (100 = growth as untreated, 0 = no growth, -100 = all killed)
Conditions: 10 µM unless noted
Compounds without any hit were thinned out: in the full panel of roughly 83,000, 20% have a hit.
Reported growth values follow for various compounds
measured.metric: growth (%)

> print(dat)
                                 smiles.repr  measured.metric  observed.result
 1  CCCCNC(=O)Oc1ccc(/C(=C(\C)c2ccccc2)c2ccc(OCCN(CC)CC)cc2)cc1           growth             8.28
 2             O=C1c2ccccc2-c2ccccc2C1(Cl)Cl           growth            -15.4
 3             Cn1ncc2c(Sc3ccc(Cl)cc3)ncnc21           growth             78.1
 4  COc1ccc(Nc2nn3c(C)cc(C)nc3c2C(=O)Nc2ccc(C)cc2)c(OC)c1           growth              108
 5  O=[N+]([O-])c1ccc(-c2cn(-c3ccccc3)c(-c3ccccc3)n2)cc1           growth             62.5
 6  O=C(NNC(=S)Nc1ccccc1)c1cc2ccc1CCc1ccc(cc1)CC2           growth             43.4
 7  C/C(=N/NC(=S)Nc1ccccc1)c1nc2ccc(Cl)cc2[nH]1           growth             -9.4
 8  COc1ccc(S(=O)(=O)Nc2cc(/C=C\c3cc(OC)c(OC)c(OC)c3)cc(OC)c2OC)cc1           growth             7.33
 9  CCOC(=O)c1c(NS(=O)(=O)c2ccc(C)cc2)sc2c1CCC1(C2)OCCO1           growth             89.5
10  CO[C@H]1NC(=O)N(S(=O)(=O)c2ccc(Cl)cc2)[C@@H]1OC           growth             93.2

---

Tested on: SF-268 CNS
Experiment: NCI-60 one-dose screen, 48 h
Details: 10 µM unless noted
Compounds without any hit were thinned out: in the full panel of roughly 83,000, 20% have a hit. Activity calls are given as the source filed them. Rule for the calls: active = growth percent below 10; inactive = the rest.
Labels: t for active, f for inactive

> print(dat)
                                smiles.repr  group
1  COc1cc2c(cc1OCCCN1CCN(CCCn3c4ccccc4c4ccccc43)CC1)N=C[C@@H]1CCCN1C2=O      t
2  O=C(Nc1ccncc1)C(=O)c1cn(S(=O)(=O)c2ccc(Cl)cc2)c2ccccc12      f
3  CN1CCN(Cc2ccc(NC(=O)c3cncc(C#Cc4cnc(N)c5ccncc45)c3)cc2C(F)(F)F)CC1      f
4  Brc1cccc(-c2cc(-c3ccc4nccnc4c3)[nH]n2)c1      f
5    C=C(C)[C@@H]1C[C@@H]2Cc3cc(Cl)ccc3N1O2      f

---

Tested on: MALME-3M melanoma
Experiment: NCI-60 one-dose screen, 48 h (100 = growth as untreated, 0 = no growth, -100 = all killed)
Details: 10 µM unless noted
The panel holds about 83,000 compounds, 20% with a hit somewhere; the sample as a whole holds those more often.
measured.metric: growth (%)

> print(dat)
                                    compound             target  observed.result
 1  C[n+]1c(/C=C/c2c(O)ccc3ccccc23)ccc2ccccc21  MALME-3M melanoma             40.4
 2         Nc1cc2c(cc1C(=O)c1cccc(F)c1)OCCO2  MALME-3M melanoma              109
 3       C=C[C@@H]1C[C@@H]2Cc3cc(Cl)ccc3N1O2  MALME-3M melanoma               88
 4  COc1cc(C2C3=C(COC3=O)Nc3cc4c(cc32)OCO4)cc2c1OCO2 (stereo not given)  MALME-3M melanoma             53.8
 5  COc1cc(-c2nn(-c3cccc(NC(=O)c4ccc(Cl)c(C(F)(F)F)c4)c3)cc2-c2ccncc2)ccc1Cl  MALME-3M melanoma             16.8
 6  Brc1ccc(-c2[nH]ncc2-c2c[nH]c3ccccc23)cc1  MALME-3M melanoma             90.6
 7  O=C(Nc1ccc(NCCN2CCOCC2)nc1)c1ccc([N+](=O)[O-])cc1  MALME-3M melanoma              105
 8  NC(=O)CCCN1C/C(=C\c2ccccc2)C(=O)c2ccccc21  MALME-3M melanoma              105
 9  Fc1ccc(Nc2nc(NCCNc3ccnc4cc(Cl)ccc34)nc(N3CCOCC3)n2)cc1  MALME-3M melanoma            -63.1
10  CCOC(=O)c1ccc(NC(=O)N2CC(C)OC(C)C2)cc1 (stereo not given)  MALME-3M melanoma              101
